System: MDA-MB-231 breast
test_method_notes: NCI tumour cell line growth inhibition, 48 h
readout_label: TGI

Query "COc1cc(-c2cc(C(=O)N3CCN(C(=O)c4ccccc4NCc4ccco4)CC3)nc3cc(-c4ccccc4)nn23)cc(OC)c1OC" yields TGI of > 100 µM

Query "CC(C)Nc1[nH]c(C(=O)c2ccccc2)c(N)c1C(=S)Nc1ccccc1" yields TGI of > 100 µM

Query "Nc1ccn(C=C=CCO)c(=O)n1" yields TGI of > 1000 µM

Query "CN(C)CCN1C(=O)CC[C@@]2(C)C1=CC[C@@H]1[C@@H]2CC[C@@]2(C)[C@H]1CC[C@]2(C)O" yields TGI of > 100 µM

Query "Cc1ccc(-c2c(C#N)c(N)nc(N3CCOCC3)c2C#N)o1" yields TGI of 80.7 µM

Query "CCOC(=O)C1(Cc2ccccc2)Cc2cc3c(cc2C1)CCC3" yields TGI of > 100 µM

Query "COC(=O)Nc1nc2ccc(C(=O)c3ccc[nH]3)cc2[nH]1" yields TGI of > 100 µM

Query OC1c2ccccc2[C@@H]2[C@H]1[C@@H](c1ccccc1)C1(Cc3ccccc3C1O)[C@H]2c1ccccc1 (stereo partly drawn) yields TGI of 20.3 µM

Query CC(=O)OC1/C(=C/c2ccc([N+](=O)[O-])cc2)C[C@H]2[C@@H]3CC=C4C[C@@H](OC(C)=O)CC[C@]4(C)[C@H]3CC[C@]12C (stereo partly drawn) yields TGI of > 100 µM

Query CC(=O)N1c2ccccc2C(C)(C)OC1C(Cl)(Cl)Cl (stereo not drawn) yields TGI of > 100 µM

Query CC(=O)OCC1OC(Nc2ccc3nc(C)n(-c4cccc(C)c4)c(=O)c3c2)C(OC(C)=O)C(OC(C)=O)C1OC(C)=O (stereo not drawn) yields TGI of > 62.5 µM

Query "O=C1c2ccccc2-c2c1c1ccccc1c(=O)n2CCO" yields TGI of > 100 µM

Query "Cc1ccc(-c2sc(-c3ccc(C)cc3)c3c2C2CCC3C2)cc1" yields TGI of > 50 µM

Query "Cc1cn(CC2=NCCN2)c(=O)[nH]c1=O" yields TGI of > 100 µM

Query "O=c1[nH]c2cc(C(F)(F)F)ccc2nc1Cc1ccccc1" yields TGI of 83.6 µM

Query "CC(=O)Oc1ccccc1[C@H]1CC(=O)C[C@H](c2ccccc2OC(C)=O)C12C(=O)c1ccccc1C2=O" yields TGI of 94.6 µM

Query "COc1ccc(/C(=C/c2cc(OC)c(OC)c(OC)c2)[N+](=O)[O-])cc1" yields TGI of 3.28 µM

Query "CNNC1=NS(=O)(=O)c2cc(C)c(Cl)cc2S1" yields TGI of > 10 µM

---

Kindly state TGI for each of the entries shown.
System: OVCAR-3 ovarian
test_method_notes: NCI tumour cell line growth inhibition, 48 h

Query "O=[N+]([O-])c1ccc(-c2ccc(/C=N/n3c(-c4ccc(Cl)cc4)n[nH]c3=S)o2)cc1" yields TGI of > 66.8 µM

Query "CCOc1cc(/C=N\N(C)C)cc(/C=N\N(C)C)c1O" yields TGI of > 100 µM

Query CC12CC3CC/C(=N\O)C(C1)C3(N1CCOCC1)C/C2=N/O (stereo unspecified) yields TGI of > 100 µM

Query "NC(N)=NS(=O)(=O)c1ccc(NC(=O)c2cccc3c(Nc4ccc(S(=O)(=O)N=C(N)N)cc4)c4ccc(Cl)cc4nc23)cc1" yields TGI of > 100 µM

Query "Cn1cc(-c2ccc(=O)n(Cc3cccc(-c4ncc(OCCN5CCOCC5)cn4)c3)n2)cn1" yields TGI of > 100 µM

Query "O=[N+]([O-])c1ccc(Cl)cc1-n1nc(-c2ccccc2)cc1-c1ccccc1" yields TGI of > 100 µM
